Ref: the supplement of paper PMC10065799

Biological target: Fyn (UniProt P06241)
Sequence (P06241 whole entry, looked up): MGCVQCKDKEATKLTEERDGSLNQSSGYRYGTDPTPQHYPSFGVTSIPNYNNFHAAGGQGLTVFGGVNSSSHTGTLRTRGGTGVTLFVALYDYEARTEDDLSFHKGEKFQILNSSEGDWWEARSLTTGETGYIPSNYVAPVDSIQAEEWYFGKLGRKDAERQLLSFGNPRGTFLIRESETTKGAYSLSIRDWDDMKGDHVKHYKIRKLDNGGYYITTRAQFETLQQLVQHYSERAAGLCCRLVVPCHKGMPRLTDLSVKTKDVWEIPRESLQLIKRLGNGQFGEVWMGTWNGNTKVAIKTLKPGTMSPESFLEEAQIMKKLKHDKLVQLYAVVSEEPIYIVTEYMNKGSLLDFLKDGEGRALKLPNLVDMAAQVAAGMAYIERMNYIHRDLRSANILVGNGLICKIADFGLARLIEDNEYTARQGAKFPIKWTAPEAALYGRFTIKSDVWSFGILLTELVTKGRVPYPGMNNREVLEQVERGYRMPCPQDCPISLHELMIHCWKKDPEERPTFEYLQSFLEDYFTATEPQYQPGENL
Assay: phosphorylation enrichment, bacterial display (enrichment ratio); higher = better substrate or ligand; peptides without Tyr show the background;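 note: 11-residue human phosphosite peptides and single-mutation variants displayed on the E. coli surface, counted by deep sequencing, each peptide's frequency after selection divided by its frequency in the unselected input library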;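 note: frequency after pTyr selection over input frequency; kinase dosed for 20-30% of maximal phosphorylation in three min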
recorded metric: phosphorylation enrichment

sequence_content="KICDWYQRQRP [KRT14_Y151_R148C]" test_target="Fyn (UniProt P06241)" readout_value=0.447
sequence_content="EYGSGYPNDPK [RNASEH2A_Y210_D205E]" test_target="Fyn (UniProt P06241)" readout_value=0.446
sequence_content="YRDALYKFMVD [PHEX_Y250]" test_target="Fyn (UniProt P06241)" readout_value=0.61
sequence_content="RAILDYIASKY [GSTA3_Y74_N73D]" test_target="Fyn (UniProt P06241)" readout_value=0.564
sequence_content="LTQRTYMLENA [GPAA1_Y49_S51L]" test_target="Fyn (UniProt P06241)" readout_value=0.858
sequence_content="GGFNNYGFGND [HNRNPH3_Y159_YF]" test_target="Fyn (UniProt P06241)" readout_value=0.465
sequence_content="GAPATYEGDAR [CACNA1A_Y1013]" test_target="Fyn (UniProt P06241)" readout_value=0.388
sequence_content="KILGRYYETGS [PAX2_Y72]" test_target="Fyn (UniProt P06241)" readout_value=0.437
sequence_content="PKEQKYSFLQD [GH1_Y68_N73D]" test_target="Fyn (UniProt P06241)" readout_value=0.523
sequence_content="LFDPDYMKVIL [CYP4A22_Y104_YF]" test_target="Fyn (UniProt P06241)" readout_value=0.675
sequence_content="LYVDVYGPSVP [NUBPL_Y109_D105Y]" test_target="Fyn (UniProt P06241)" readout_value=2.02
sequence_content="LDAFIYNAAVL [GRIN2A_Y730_D731N]" test_target="Fyn (UniProt P06241)" readout_value=4.57
sequence_content="VTSLKYSTPPY [BRIP1_Y916_S919P]" test_target="Fyn (UniProt P06241)" readout_value=0.366
sequence_content="TVLEPYTDPFF [ZC3H18_Y367_A368T_YF]" test_target="Fyn (UniProt P06241)" readout_value=0.535
sequence_content="YCRHNYGVVES [HLA-DRB1_Y112]" test_target="Fyn (UniProt P06241)" readout_value=0.385
sequence_content="HAVFIYDICHV [TWNK_Y508_V507I_YF]" test_target="Fyn (UniProt P06241)" readout_value=3.92
sequence_content="FQKNSYSEELR [LMNA_Y211_I210S]" test_target="Fyn (UniProt P06241)" readout_value=0.456
sequence_content="WQLEIYRASRP [ERCC4_Y594_R589W]" test_target="Fyn (UniProt P06241)" readout_value=0.492
sequence_content="MCDKEYFSVHN [MET_Y1234_Y1230C_YF]" test_target="Fyn (UniProt P06241)" readout_value=0.505
sequence_content="AHLLQYNHRVK [LGALS3_Y221]" test_target="Fyn (UniProt P06241)" readout_value=0.288
sequence_content="CKSVHYDLVFL [COL22A1_Y37]" test_target="Fyn (UniProt P06241)" readout_value=0.554
sequence_content="CTTIHYHFMCN [TP53_Y234_N235H_YF]" test_target="Fyn (UniProt P06241)" readout_value=0.542
sequence_content="RAYRHYLLKQK [SCN2A_Y1919_R1918H]" test_target="Fyn (UniProt P06241)" readout_value=0.632
sequence_content=IKETHYMVDRC test_target="Fyn (UniProt P06241)" readout_value=0.455
sequence_content="KAIMTYVPSFF [ACTN4_Y260_S262P_YF]" test_target="Fyn (UniProt P06241)" readout_value=0.499
sequence_content="FPLAEYTEVKT [ALDH1A3_Y497_A493P_YF]" test_target="Fyn (UniProt P06241)" readout_value=0.502
sequence_content="LITTLYIGFLD [KCNQ1_Y267_G272D]" test_target="Fyn (UniProt P06241)" readout_value=2.56
sequence_content="LKKLEYLNLAL [LRRC6_Y70]" test_target="Fyn (UniProt P06241)" readout_value=0.408
